Tested on: B16
Assay Details: Concentration which produces 50% inhibition of growth of murine melanoma B16 cell line
Assay type: functional, cell-based
Applied Conditions: Mus musculus
Quantity Measured: IC50 (nM)
State just the number; it will be interpreted in nM.

COc1ccc(-n2c(-c3cc(OC)c(OC)c(OC)c3)coc2=O)cc1 : 1880

Look at this molecule and give its reported IC50. COc1ccc(-c2oc(O)nc2-c2cc(OC)c(OC)c(OC)c2)cc1O
5.4

How about this molecule: COc1ccc(/C=C\c2cc(OC)c(OC)c(OC)c2)cc1O
1

How about this molecule: COc1ccc(-c2coc(=O)n2-c2cc(OC)c(OC)c(OC)c2)cc1N
1.1

How about this molecule: COc1cc(-c2nc(O)oc2-c2ccc3ccccc3c2)cc(OC)c1OC
7.4

How about this molecule: COc1cc(-n2c(-c3ccc4c(c3)OCO4)coc2=O)cc(OC)c1OC
45

How about this molecule: COc1ccc(-c2oc(O)nc2-c2cc(OC)c(OC)c(OC)c2)cc1
14.5

How about this molecule: COc1ccc(-c2coc(=O)n2-c2cc(OC)c(OC)c(OC)c2)cc1O
0.9
